target-entity: T1, human ST2 (hST2, Interleukin-1 receptor-like 1 isoform A) on cells (human, UniProt Q01638 19-556)
T1 construct: the same id is used for hST2 naturally expressed on KU812 cells and on human CD4+ T cells; also called HEK293T-hST2-NFκB-Luciferase; KU812-NFκB-Luciferase
T1 sequence: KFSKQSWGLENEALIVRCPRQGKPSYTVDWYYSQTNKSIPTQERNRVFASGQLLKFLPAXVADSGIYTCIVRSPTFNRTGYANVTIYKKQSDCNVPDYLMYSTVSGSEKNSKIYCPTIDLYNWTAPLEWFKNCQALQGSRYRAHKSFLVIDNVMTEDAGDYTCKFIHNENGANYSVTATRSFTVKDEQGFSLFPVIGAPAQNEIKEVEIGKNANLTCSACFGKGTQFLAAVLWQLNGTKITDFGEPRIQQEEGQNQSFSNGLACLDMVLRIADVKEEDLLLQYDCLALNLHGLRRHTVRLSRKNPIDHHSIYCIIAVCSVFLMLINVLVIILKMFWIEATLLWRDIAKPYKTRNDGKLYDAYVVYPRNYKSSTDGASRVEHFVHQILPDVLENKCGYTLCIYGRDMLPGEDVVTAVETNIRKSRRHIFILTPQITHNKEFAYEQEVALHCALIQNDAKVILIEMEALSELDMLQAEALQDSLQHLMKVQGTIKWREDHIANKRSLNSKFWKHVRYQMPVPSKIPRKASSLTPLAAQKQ
assay-overview: flow cytometry on HEK293T-hST2-NFκB-Luciferase cells
Quick reference for EC50 among some binders
Kindly answer with a numeric value in nM, unit omitted.

Chimeric 3C6 (antibody, human IgG2, kappa, V domains shown, also called xi3C6) VH: QVQLQQSGAEVVRPGASVTLSCKASDYTITDYEMHWVKQTPVHGLEWIGAIDPETGDTAYSQNFKGKATLTADESSSTAYMELSSLTSEDSAVYYCSRSATDYYFASWGQGTTLTVSS VL: DIVMTQAAISNPVTLGTSASMSCRSSKSLLHSNGITYLYWYLQKPGHSPQLLIYQMSNLASGVPDRFSSSGSGTDFTLKISRVEAEDVGVYYCAQNLELPFTFGSGTKLEIKR: 0.349
Chimeric 17E2 (antibody, human IgG2, kappa, V domains shown, also called xi17E2) VH: QVQLQQSGAELVRPGASVTLSCKASGYTFTDYEMHWVKQTPVLGLEWIGAIDPETGDTAYNQKFKGKATLTADKSSSTAYMELSSLASEDSAVYYCIRVDSNYDYFDYWGQDTTLTVSS VL: DIVLTQSPPILSASPGEKVTMTCRASSSVSYMHWYQQKPGSSPKPWIYDTSNLASGVPARFSGSGSGTSYSLTISRVEAEDAATYYCQQWSSNPLTFGAGTKLELKR: 0.224
Chimeric 31C8 (antibody, human IgG2, kappa, V domains shown, also called xi31C8) VH: QVQLQQSGPELVRPGASVTLSCKASGYIFIDSEMHWVKQTPVHGLEWIGAIDPETGDTVYNQKFKGKATLTADKSSSTASMELSSLTSEDSAVYYCTGSTTDYYFAYWGQGTTLTVSS VL: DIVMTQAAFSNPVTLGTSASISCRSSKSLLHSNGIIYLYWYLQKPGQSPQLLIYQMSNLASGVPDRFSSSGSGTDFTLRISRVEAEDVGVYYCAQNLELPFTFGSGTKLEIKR: 0.298

Lab note: next binder to report on.
INPUT: Retrieve EC50 measured for Chimeric 8F4 (antibody, human IgG2, kappa, V domains shown, also called xi8F4) VH: QVQLQQSGAELVRPGASVTLSCKASGHIFTDYEMQWVKQTPVHGLEWIGAFDPETGDTAYNQKFKGKATLTADKSSSTAYMELSSLTSEDSAVYYCSGSTTDYYFAYWGQGTSLTVSS VL: DVVMTQTAFSNPVTLGTSASISCRSSKSLLHSNGIIYLYWYLQKPGQSPQLLIYQMSNLASGVPDRFSSSGSGTDFTLRISRVEAEDVGVYYCAQNLELPFTFGSGTKLEIKR and print it.
OUTPUT: 0.343
